Target: T1, huNectin4-His (human, UniProt Q96NY8 32-349)
T1 construct: Immobilized on the SPR chip; also called humanNectin4; human Nectin4; not shown: His tag
T1 sequence (looked up): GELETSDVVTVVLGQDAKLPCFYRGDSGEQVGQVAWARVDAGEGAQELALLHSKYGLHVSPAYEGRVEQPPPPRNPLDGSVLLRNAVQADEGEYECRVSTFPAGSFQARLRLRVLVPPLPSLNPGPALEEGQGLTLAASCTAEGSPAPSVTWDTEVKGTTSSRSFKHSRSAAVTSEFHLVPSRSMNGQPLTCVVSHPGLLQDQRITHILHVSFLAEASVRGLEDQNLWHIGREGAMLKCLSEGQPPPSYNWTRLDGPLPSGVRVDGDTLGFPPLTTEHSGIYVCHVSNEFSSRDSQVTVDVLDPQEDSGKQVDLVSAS
Assay: SPR, huNectin4-His immobilized, pH 7.4
property-measured: Kd (nM)
One number for each entry, in nM.

Note Kd for the binder shown: BAP-143-07-03-12 (antibody, V domains shown, Used as a conjugate with a linker payload (CAB ADC)) VH: EVQLVESGGGLVQPGGSLRLSCAASGFTFSSYNMNWVRQAPGKGLEWVSYISSSSSTIYYADSVKGRFTISRDNAKNSLSLQMNSLRDEDTAVYYCARAYYYGMDKWGQGTTVTVSS VL: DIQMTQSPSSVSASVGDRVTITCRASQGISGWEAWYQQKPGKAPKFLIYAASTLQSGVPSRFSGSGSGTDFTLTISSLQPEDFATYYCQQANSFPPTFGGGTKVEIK 0.925
